Where these numbers come from: the supplement of paper PMC10567573

B1: CAMK2B (parent)
chain: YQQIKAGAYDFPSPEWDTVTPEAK

- Variants of: B1
- Experimental Protocol: protein stability index of a GFP-peptide fusion (GPS, HEK-293T) (PSI 1-6); higher = more stable;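 further: lentivirally expressed fusions sorted by FACS into six bins by GFP to DsRed ratio, PSI derived from sequencing read proportions per bin multiplied by bin number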
- Test Parameters: c terminus: a fixed tail appended
Metric Name: protein stability index

Sequence Text: YQQIQAGAYDFPSPEWDTVTPEAK [K5Q]
Observed Result: 3.77

Sequence Text: YQDIKAGAYDFPSPEWDTVTPEAK [Q3D]
Observed Result: 3.94

Sequence Text: YQQIKLGAYDFPSPEWDTVTPEAK [A6L]
Observed Result: 3.09

Sequence Text: YQQIKAGAYDFPSPEWDTVFPEAK [T20F]
Observed Result: 3.03

Sequence Text: YQQIKAGAYDFPVPEWDTVTPEAK [S13V]
Observed Result: 3.18

Sequence Text: YQQGKAGAYDFPSPEWDTVTPEAK [I4G]
Observed Result: 3.34

Sequence Text: YQQIKAGAYDFPSGEWDTVTPEAK [P14G]
Observed Result: 4.03

Sequence Text: YQQIKAGAYDFPSPEWDTVAPEAK [T20A]
Observed Result: 3.48

Sequence Text: YQQIKAGAYDFPKPEWDTVTPEAK [S13K]
Observed Result: 3.4

Sequence Text: YQQIKAGAYDFPSPEWDRVTPEAK [T18R]
Observed Result: 3.33

Sequence Text: YQQIKARAYDFPSPEWDTVTPEAK [G7R]
Observed Result: 2.96

Sequence Text: YQQIKAGAYDFPSPEWDTFTPEAK [V19F]
Observed Result: 1.97

Sequence Text: YQQIKAGAYDFPSPEWDTVKPEAK [T20K]
Observed Result: 3.41

Sequence Text: YCQIKAGAYDFPSPEWDTVTPEAK [Q2C]
Observed Result: 2.87

Sequence Text: YQNIKAGAYDFPSPEWDTVTPEAK [Q3N]
Observed Result: 3.62

Sequence Text: YQQIKAGAYDAPSPEWDTVTPEAK [F11A]
Observed Result: 4.58
